# System: HL-60(TB) leukemia
# RUN_DESCRIPTION: NCI tumour cell line growth inhibition, 48 h
Quick reference: TGI of the listed items.

Example results:
COMPOUND | ENDPOINT_NAME | DATA_VALUE
COC1(OC)CC2CCCCC2=C(C)N1S(=O)(=O)c1ccccc1 (stereo not given) | TGI | > 100 µM
CCCCCC(/C=C/[C@@H]1[C@H]2CC(=O)O[C@H]2C[C@H]1N1CCOCC1)OC1CCCO1 (stereo not given in full) | TGI | > 100 µM
S=c1ssnc1-c1ccccn1 | TGI | 4.65 µM
N#CCC(=O)N1CCCOCCC1 | TGI | > 100 µM
O=C(O)CNCP(=O)(O)O | TGI | > 100 µM

*Q* Would you mind telling me what TGI value was observed for CCc1n[nH]c(=O)n1N1C(=O)C2CCCCC2C1=O (stereo not given) ?
*A* > 100 µM

*Q* Would you mind telling me what TGI value was observed for CCn1nc(-c2ccc(C(=O)OC)cc2)nc2c(=O)n(C)c(=O)nc1-2 ?
*A* 1.15 µM

* * *

# Tested on: COLO 205 colon
# RUN_DESCRIPTION: NCI tumour cell line growth inhibition, 48 h
ENDPOINT_NAME: TGI

*Q* Would you mind telling me what TGI value was observed for C=CC1(c2ccc(-c3ccccc3)cc2)OCCO1 ?
*A* > 100 µM

*Q* Would you mind telling me what TGI value was observed for O=C(O)CNCP(=O)(O)O ?
*A* > 100 µM

*Q* Would you mind telling me what TGI value was observed for O=C(O)CNS(=O)(=O)c1ccc(NC(=O)c2ccccc2[N+](=O)[O-])cc1 ?
*A* > 100 µM

*Q* Would you mind telling me what TGI value was observed for OCCCCOC(c1ccccc1)(c1ccccc1)c1ccccc1 ?
*A* > 100 µM

*Q* Would you mind telling me what TGI value was observed for CC1=C(Cc2ccccc2)C(Cc2ccccc2)=C(C)S1=O ?
*A* 43.1 µM

* * *

# Tested on: MCF7 breast
# RUN_DESCRIPTION: NCI tumour cell line growth inhibition, 48 h; in the data active = GI50 below about 0.43 µM; inactive = the rest
Pick one and only one: 1 (active), -1 (inactive)

Some solved cases for reference:
MOLECULE | ANSWER_LABEL
COC(=O)[C@@]1(C)CCC[C@]2(C)[C@H]3Cc4occc4[C@H](C)[C@@H]3CC[C@@]12O | -1
CCn1nc(-c2ccc(C(=O)OC)cc2)nc2c(=O)n(C)c(=O)nc1-2 | 1
COc1cc(-c2nn(-c3ccc(NC(=O)NCCNS(=O)(=O)c4ccc(F)cc4)cc3)cc2-c2ccncc2)ccc1Cl | 1
COc1cc2c(cc1O)CC[C@@H]1[C@@H]2CC[C@]2(C)[C@@H](OCCCN(C)C)CC[C@@H]12 | 1
ClC(Cl)c1nc(-c2ccccc2)n2nc(-c3ccccc3)cc2n1 | -1
COc1ccc(/C=C/C(=O)c2ccc(Cl)cc2Cl)cc1 | -1

*Q* Hi, do you know how CCOC(=O)CCC(NC(=O)c1ccc(Sc2nc3cc(N)cc(N)c3nc2-c2ccccc2)cc1)C(=O)OCC (configuration not stated) came out in this test?
*A* -1

* * *

# Tested on: T-47D breast
# RUN_DESCRIPTION: NCI tumour cell line growth inhibition, 48 h; in the data active means GI50 below about 0.43 µM; inactive means the rest
Pick one and only one: Y (active), N (inactive)

Some solved cases for reference:
COMPOUND | ANSWER_LABEL
CC(C)N(Cc1c(F)cccc1F)c1ccc(CO)c(Cl)c1 | Y
CC(C)(C)C(=O)OCCNc1nc(-c2ccccc2)nc2ccccc12 | N

Then there is this molecule:
*Q* Hi, do you know how COC(=O)C1=C(C(=O)OC)SC(=C(Cl)C(=S)Oc2ccccc2N)S1 came out in this test?
*A* N
